- assay info: Intravenous and intraduodenal bioavailability of zanamivir from three formulations (Example 5)
- run parameters: male, Sprague-Dawley, rat, in vivo, 1.5 mg, tmax, ID 1.5 mg/animal, PBS, 50 µL blank glycerol -2 hr; mean
quantity kind: Tmax (min)
Numeric answer only, unit min assumed.

Qu. Any idea what its Tmax is? The molecule is CC(=O)NC1C(NC(=N)N)C=C(C(=O)O)OC1C(O)C(O)CO (stereo not shown)
Ans. 34.8

---

- assay info: Intravenous and intraduodenal (bolus) bioavailability of zanamivir from Capmul MCM L8 25, 50, 75 µL (Example 7)
- run parameters: male, Sprague-Dawley, rat, in vivo, iv, 1.5 mg, Vss, IV 1.5 mg/animal, Normal Saline, Ex.7; individual rats
quantity kind: Vd (L/kg)
Output spec: scalar in L/kg, unitless text.

Qu. Bench note: what Vd did CC(=O)NC1C(NC(=N)N)C=C(C(=O)O)OC1C(O)C(O)CO (stereo not shown) show?
Ans. 0.276

---

- assay info: Intravenous and intraduodenal bioavailability of zanamivir from three formulations (Example 5)
- run parameters: male, Sprague-Dawley, rat, in vivo, 1.5 mg, t1/2, ID 1.5 mg/animal, PBS 50 µL; mean
quantity kind: half-life (min)
Write the answer as a number in min, unit excluded.

Qu. Would you mind telling me what half-life value was observed for CC(=O)NC1C(NC(=N)N)C=C(C(=O)O)OC1C(O)C(O)CO (stereo not shown) [Zanamivir] ?
Ans. 49.8

---

- assay info: Intravenous and intraduodenal (bolus) bioavailability of zanamivir from Capmul MCM L8 25, 50, 75 µL (Example 7)
- run parameters: male, Sprague-Dawley, rat, in vivo, 1.5 mg/animal, Plasma concentration, intraduodenal bolus, 75 μL Capmul MCM L8; 2.0 hr; mean of 3 rats
- Experimental: Male Sprague-Dawley rats (Hilltop Labs), 3 animals per treatment group, 250-350 grams in weight, were fitted with a jugular vein cannula (JVC). Animals intended for intraduodenal dosing were also fitted with one or more intraduodenal cannula (IDC) and those intended for intravenous dosing were fitted with a second JVC. […] In this example, the bioavailability of Zanamivir was evaluated after intraduodenal doses in male Sprague-Dawley rats. […] Plasma levels were determined by LC-MS/MS analysis. […]
quantity kind: concentration at 2 hr (ng/mL)
Expressed in ng/mL, but write only the number.

Qu. // concentration at 2 hr lookup, key: CC(=O)NC1C(NC(=N)N)C=C(C(=O)O)OC1C(O)C(O)CO (stereo not shown)
Ans. 154

---

- assay info: Intraduodenal bioavailability of zanamivir from glycerol and PBS formulations, enhancer pre-dose (Example 6)
- run parameters: male, Sprague-Dawley, rat, in vivo, 1.5 mg, t1/2, ID 1.5 mg/animal, 50 µL PBS, 50 µL blank Capmul MCM L8 -2 hr; mean (n = 1)
quantity kind: half-life (min)
Report only the number, with the unit min understood.

Qu. Given CC(=O)NC1C(NC(=N)N)C=C(C(=O)O)OC1C(O)C(O)CO (stereo not shown) [Zanamivir] , state its recorded half-life.
Ans. 51.6

---

- assay info: Intravenous and intraduodenal bioavailability of zanamivir from three formulations (Example 5)
- run parameters: male, Sprague-Dawley, rat, in vivo, iv, 1.5 mg/animal, Plasma concentration, IV 1.5 mg/animal, Normal Saline, Ex.5; 0.083 hr; individual rats
quantity kind: concentration at 0.083 hr (ng/mL)
Express the result in ng/mL but write the number alone.

Qu. Query (compound): CC(=O)NC1C(NC(=N)N)C=C(C(=O)O)OC1C(O)C(O)CO (stereo not shown) ; field requested: concentration at 0.083 hr
Ans. 19400
